Target: human mGlu4 receptor (Homo sapiens, UniProt Q14833)
Construct: expressed in transfected cells; host or cells: monoclonal HEK-293 cell line, stably transfected
Sequence (Q14833 33-912): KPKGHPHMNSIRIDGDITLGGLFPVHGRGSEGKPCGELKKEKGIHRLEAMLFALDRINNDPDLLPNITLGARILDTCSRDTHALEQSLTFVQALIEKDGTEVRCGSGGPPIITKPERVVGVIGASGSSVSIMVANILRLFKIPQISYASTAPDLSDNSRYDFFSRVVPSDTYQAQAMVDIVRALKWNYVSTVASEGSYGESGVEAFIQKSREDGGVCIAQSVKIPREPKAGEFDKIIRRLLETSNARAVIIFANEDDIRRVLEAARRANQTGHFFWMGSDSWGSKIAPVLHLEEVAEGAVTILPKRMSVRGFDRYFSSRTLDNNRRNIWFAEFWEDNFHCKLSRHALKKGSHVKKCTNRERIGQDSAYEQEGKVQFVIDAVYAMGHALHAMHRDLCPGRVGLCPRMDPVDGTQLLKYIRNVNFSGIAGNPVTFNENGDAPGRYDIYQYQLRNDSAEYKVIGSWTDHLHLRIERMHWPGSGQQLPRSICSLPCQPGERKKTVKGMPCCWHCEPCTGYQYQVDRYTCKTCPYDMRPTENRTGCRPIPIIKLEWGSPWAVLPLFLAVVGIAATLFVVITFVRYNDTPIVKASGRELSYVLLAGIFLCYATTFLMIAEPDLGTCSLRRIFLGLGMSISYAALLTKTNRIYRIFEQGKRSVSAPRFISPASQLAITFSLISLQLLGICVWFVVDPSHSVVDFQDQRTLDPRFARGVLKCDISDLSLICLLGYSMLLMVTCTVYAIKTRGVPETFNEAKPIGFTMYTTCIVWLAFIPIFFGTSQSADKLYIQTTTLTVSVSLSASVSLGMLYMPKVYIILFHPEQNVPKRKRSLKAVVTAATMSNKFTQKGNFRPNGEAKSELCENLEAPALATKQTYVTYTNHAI
Test: Ca2+ mobilization in vitro assay on recombinant human mGlu4 expressed in HEK293 cells (PAM, L-AP4 at EC20)
Assay type: cell-based
Conditions: HEK293 cells expressing human mGlu4; L-AP4 added at EC20
The entries below are paired with their reported EC50.

Compound: Cc1ncc([C@]2(C)CC(=O)N(c3c(F)cc(C#Cc4ccccc4)cc3F)C(=O)N2C)s1 [Example 39]
System: human mGlu4 receptor (Homo sapiens, UniProt Q14833)
EC50 / nM: 71
--
Compound: CN1C(=O)N(c2c(F)cc(C#Cc3ccccc3)cc2F)C(=O)C[C@@]1(C)c1cnn2ccccc12 [Example 14]
System: human mGlu4 receptor (Homo sapiens, UniProt Q14833)
EC50 / nM: 93
--
Compound: CN1C(=O)N(c2c(F)cc(C#Cc3ccccc3)cc2F)C(=O)C[C@@]1(C)c1ncnn1C [Example 4]
System: human mGlu4 receptor (Homo sapiens, UniProt Q14833)
EC50 / nM: 136
--
Compound: CN1C(=O)N(c2c(F)cc(C#Cc3cccnc3)cc2F)C(=O)C[C@@]1(C)c1cn[nH]c1 [Example 36]
System: human mGlu4 receptor (Homo sapiens, UniProt Q14833)
EC50 / nM: 41
--
Compound: COCCCn1ccc([C@]2(C)CC(=O)N(c3c(F)cc(C#Cc4ccccc4)cc3F)C(=O)N2C)n1 [Example 31]
System: human mGlu4 receptor (Homo sapiens, UniProt Q14833)
EC50 / nM: 23
--
Compound: CN1C(=O)N(c2c(F)cc(C#Cc3ccccc3)cc2F)C(=O)C[C@@]1(C)c1cnsc1 [Example 15]
System: human mGlu4 receptor (Homo sapiens, UniProt Q14833)
EC50 / nM: 38
